Data provenance is the supplement of paper PMC10567573.

B1: TBX5 (parent)
chain: FHEVGTEMIITKAGRRMFPSYKVK

Variants of: B1
Assay: protein stability index of a GFP-peptide fusion (GPS, HEK-293T) (PSI 1-6); higher = more stable;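 also: lentivirally expressed fusions sorted by FACS into six bins by GFP to DsRed ratio, PSI derived from sequencing read proportions per bin multiplied by bin number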
Conditions: c terminus: a fixed tail appended
Label scheme for protein stability index: lower than 2 is criterion not met, 2 and above is criterion met.

1. FHEVGTEMIITKAGMRMFPSYKVK [R15M]
criterion not met
2. THEVGTEMIITKAGRRMFPSYKVK [F1T]
criterion met
3. FHEVGTAMIITKAGRRMFPSYKVK [E7A]
criterion met
4. FHEVGTEMIITKAGRRMFPSYGVK [K22G]
criterion met
5. FHEVGTCMIITKAGRRMFPSYKVK [E7C]
criterion met
6. FHEVGTEMIITKAGRRMFPDYKVK [S20D]
criterion met
7. FHEVGTEMIITHAGRRMFPSYKVK [K12H]
criterion not met
8. FHEVGTEMIITKAGRRMFPSYKVV [K24V]
criterion not met
9. FHEVGTEMIITKAGRRMTPSYKVK [F18T]
criterion not met
10. FHEVGTEMIITTAGRRMFPSYKVK [K12T]
criterion not met
11. FHEVGTEMIIRKAGRRMFPSYKVK [T11R]
criterion met
12. FHEVGTEMIITKAGNRMFPSYKVK [R15N]
criterion met
13. FHEVGTEMEITKAGRRMFPSYKVK [I9E]
criterion met
14. FHEVGTEMLITKAGRRMFPSYKVK [I9L]
criterion not met
15. FHEVGTEMIITKAGRRRFPSYKVK [M17R]
criterion met
16. FHEVGTEMIITCAGRRMFPSYKVK [K12C]
criterion not met
17. FHEVGTEMIITKAGRRMFPIYKVK [S20I]
criterion met
18. FHEVGTEMIITKAGRRMFSSYKVK [P19S]
criterion met
19. FHEVGTEMIITKAGRRPFPSYKVK [M17P]
criterion not met
20. FGEVGTEMIITKAGRRMFPSYKVK [H2G]
criterion met
21. FHEEGTEMIITKAGRRMFPSYKVK [V4E]
criterion met
22. FHEVGTEMIITKAGRRMFPSHKVK [Y21H]
criterion met
23. FHEVGTEMIITKAGRRHFPSYKVK [M17H]
criterion not met
24. FHEVGTSMIITKAGRRMFPSYKVK [E7S]
criterion not met
25. FHEVNTEMIITKAGRRMFPSYKVK [G5N]
criterion not met
26. FHEVGTEMIITKAGRRMFPSYDVK [K22D]
criterion met
27. FHEVGWEMIITKAGRRMFPSYKVK [T6W]
criterion met
28. FHEVGTEMIATKAGRRMFPSYKVK [I10A]
criterion not met
29. FHEVGTEMIITKRGRRMFPSYKVK [A13R]
criterion met
30. FHEVGTEMIQTKAGRRMFPSYKVK [I10Q]
criterion met
31. FHEVGTEMIITKAGRRMFPSYSVK [K22S]
criterion met
32. FHEVGTEMIITKAGRRMFPSTKVK [Y21T]
criterion met
33. FHEVGTEMIITKAGRRMFPSGKVK [Y21G]
criterion met
34. FHEVGTEMIITKAGRRMFPSYKVI [K24I]
criterion not met
35. FHEFGTEMIITKAGRRMFPSYKVK [V4F]
criterion met
36. FHEVGTEMIITKAGRRMFPSAKVK [Y21A]
criterion met
37. FHEVGTEMIITKAKRRMFPSYKVK [G14K]
criterion not met
38. FHEVGTEWIITKAGRRMFPSYKVK [M8W]
criterion met
39. FHEVGTEGIITKAGRRMFPSYKVK [M8G]
criterion not met
40. CHEVGTEMIITKAGRRMFPSYKVK [F1C]
criterion met
41. FHEVGTEMIITKAGRRMIPSYKVK [F18I]
criterion met
42. FHEVGFEMIITKAGRRMFPSYKVK [T6F]
criterion met
